biological target: DmNobo (Drosophila melanogaster, UniProt Q7JYX0); experiment: Crystal structures of DmNobo complexed with inhibitors; details: crystal structure of DmNobo complex
Sequence (Q7JYX0 whole entry): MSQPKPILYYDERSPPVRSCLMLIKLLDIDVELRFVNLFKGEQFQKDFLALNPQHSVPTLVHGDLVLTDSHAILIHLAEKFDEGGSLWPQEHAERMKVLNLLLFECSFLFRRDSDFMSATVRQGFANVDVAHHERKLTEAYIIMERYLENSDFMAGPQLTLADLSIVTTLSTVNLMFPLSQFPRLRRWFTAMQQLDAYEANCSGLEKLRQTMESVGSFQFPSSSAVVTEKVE
quantity: # of bound molecules in the H-site

Item COc1cccc(C2=NC(C)(C)NC(c3cc(Br)ccc3O)C2)c1 (centres unmarked) with DmNobo (Drosophila melanogaster, UniProt Q7JYX0) - # of bound molecules in the H-site?
1

Please provide the recorded # of bound molecules in the H-site for Nc1ccc(N2CCc3sccc3C2)nc1 , tested on DmNobo (Drosophila melanogaster, UniProt Q7JYX0).
2

What value of # of bound molecules in the H-site on DmNobo (Drosophila melanogaster, UniProt Q7JYX0) does Cc1ccc(C(C)(C)C)cc1S(=O)(=O)Nc1ccccc1C(=O)O have?
1

Which # of bound molecules in the H-site is reported with DmNobo (Drosophila melanogaster, UniProt Q7JYX0) for this entry: O=C1CS(=O)(=O)N(Cc2ccc(F)cc2)c2ccsc21 ?
1

// fetch DmNobo (Drosophila melanogaster, UniProt Q7JYX0) # of bound molecules in the H-site for CC1(C)CC(=O)CC(=O)C1
1

----------
biological target: DmNobo (Drosophila melanogaster, UniProt Q7JYX0); test: GST activity inhibition assay; assay type: biochemical
Assign IC50 to each entry below.
Numeric only. Scale: µM

Provide the documented IC50 with DmNobo (Drosophila melanogaster, UniProt Q7JYX0) as the system for Nc1ccc(N2CCc3sccc3C2)nc1
3.32

What IC50 appears in the records for this molecule with DmNobo (Drosophila melanogaster, UniProt Q7JYX0)? O=C1CS(=O)(=O)N(Cc2ccc(F)cc2)c2ccsc21
3.1

Please tell me: IC50 of Cc1ccc(C(C)(C)C)cc1S(=O)(=O)Nc1ccccc1C(=O)O , system DmNobo (Drosophila melanogaster, UniProt Q7JYX0)?
8.94

Lookup: IC50 / DmNobo (Drosophila melanogaster, UniProt Q7JYX0) / COc1cccc(C2=NC(C)(C)NC(c3cc(Br)ccc3O)C2)c1 (centres unmarked)
6.72
